Below is a list of entries, each paired with its recorded ERYTHROCYTE COUNT value.
Organism: Rattus norvegicus
Assay: DrugMatrix - Regimen: Daily Repeat
Type: toxicity, organism-based, Sprague-Dawley
Set-up: regimen Daily Repeat, gender Male, age 6-8 weeks
Settings: in vivo, po, 0 mg/kg, 72 h, tissue Blood, route oral GAVAGE, dose level Control, time 3 day, vehicle .5 % CMC
Measurement Kind: ERYTHROCYTE COUNT (x10E6/uL)

Molecule: CCCNC(=O)NS(=O)(=O)c1ccc(Cl)cc1 [CHLORPROPAMIDE]
Unit String: x10E6/uL
Number: 6.2

Molecule: C#C[C@]1(O)CC[C@H]2[C@@H]3CCC4=CC(=O)CC[C@]4(C)[C@H]3CC[C@@]21C [ETHISTERONE]
Unit String: x10E6/uL
Number: 7.15

Molecule: COc1ccccc1[N+](=O)[O-] [2-NITROANISOLE]
Unit String: x10E6/uL
Number: 5.26

Molecule: CCOc1nc2cccc(C(=O)O)c2n1Cc1ccc(-c2ccccc2-c2nnn[nH]2)cc1
Unit String: x10E6/uL
Number: 5.35

Molecule: C[C@]12CC[C@@H]3c4ccc(O)cc4CC[C@H]3[C@@H]1C[C@@H](O)[C@@H]2O [ESTRIOL]
Unit String: x10E6/uL
Number: 5.56

----------
Reported ERYTHROCYTE COUNT is given for each of the following compounds.
Species on record: Rattus norvegicus
Test: DrugMatrix - Regimen: Daily Repeat
Assay type: toxicity, organism-based, Sprague-Dawley
Design: regimen Daily Repeat, gender Male, age 6-8 weeks
Settings: in vivo, po, 0 mg/kg, 72 h, tissue Blood, route oral GAVAGE, dose level Control, time 3 day, […]

Compound: CS(=O)(=O)Nc1ccc([N+](=O)[O-])cc1Oc1ccccc1 [NIMESULIDE]
ERYTHROCYTE COUNT (x10E6/uL): 5.03
//
Compound: CCc1ccc(CCOc2ccc(CC3SC(=O)NC3=O)cc2)nc1 (centres undefined)
ERYTHROCYTE COUNT (x10E6/uL): 5.34
//
Compound: CCCCC(=O)N(Cc1ccc(-c2ccccc2-c2nnn[nH]2)cc1)[C@H](C(=O)O)C(C)C
ERYTHROCYTE COUNT (x10E6/uL): 5.44
//
Compound: O=c1c(-c2ccc(O)cc2)coc2cc(O)cc(O)c12
ERYTHROCYTE COUNT (x10E6/uL): 5.08
//
Compound: CC(=O)Oc1ccccc1C(=O)O
ERYTHROCYTE COUNT (x10E6/uL): 5.2
//
Compound: Cc1ccc(C)c(OCCCC(C)(C)C(=O)O)c1
ERYTHROCYTE COUNT (x10E6/uL): 5.2
//
Compound: c1ccoc1
ERYTHROCYTE COUNT (x10E6/uL): 6.6
//
Compound: ClC(Cl)(Cl)Cl [CARBON TETRACHLORIDE]
ERYTHROCYTE COUNT (x10E6/uL): 5.26
//
Compound: CC(C)c1c(C(=O)Nc2ccccc2)c(-c2ccccc2)c(-c2ccc(F)cc2)n1CC[C@@H](O)C[C@@H](O)CC(=O)O
ERYTHROCYTE COUNT (x10E6/uL): 5.08

----------
Species on record: Rattus norvegicus
Assay: DrugMatrix - Regimen: Daily Repeat
Assay type: toxicity, organism-based, Sprague-Dawley
Parameters: regimen Daily Repeat, gender Male, age 6-8 weeks
Conditions: in vivo, po, 0 mg/kg, 120 h, tissue Blood, route oral GAVAGE, dose level Control, time 5 day, vehicle 100 % WATER
Measurement Kind: ABSOLUTE LYMPHOCYTE (CELLS/uL)

Compound: CN(C)C(=O)Oc1cccc([N+](C)(C)C)c1.[Br-] [NEOSTIGMINE BROMIDE]
Number: 7918.33
--
Compound: CN(C)CCC=C1c2ccccc2CCc2ccccc21
Number: 12577.83
--
Compound: NC(=O)c1cccnc1 [NIACINAMIDE]
Number: 12797.33
--
Compound: NC12CC3CC(CC(C3)C1)C2
Number: 12577.83
--
Compound: CNC1=Nc2ccc(Cl)cc2C(c2ccccc2)=[N+]([O-])C1 [CHLORDIAZEPOXIDE]
Number: 14288.5
--
Compound: CCCC(C)C1(CC)C(=O)NC(=O)NC1=O (stereo not drawn)
Number: 7918.33
--
Compound: O=c1[nH]c(=O)n(C2CCCO2)cc1F (stereo not drawn)
Number: 13539.33
--
Compound: CCN(C(C)=O)c1cccc(-c2ccnc3c(C#N)cnn23)c1
Number: 12577.83

----------
Reported TOTAL PROTEIN values are given for each entry in this list.
Species on record: Rattus norvegicus
Assay: DrugMatrix - Regimen: Daily Repeat
Format: toxicity, organism-based, Sprague-Dawley
Set-up: regimen Daily Repeat, gender Male, age 6-8 weeks
Details: in vivo, iv, 0 mg/kg, 120 h, tissue Plasma, dose level Control, time 5 day, vehicle 100 % SALINE
Measurement Kind: TOTAL PROTEIN (G/DL)

Compound: C[N+](C)(C)CCOC(=O)CCC(=O)OCC[N+](C)(C)C.[Cl-].[Cl-] [SUCCINYLCHOLINE CHLORIDE]
Number: 6.22
--
Compound: O=c1[nH]c(=O)n([C@H]2C[C@H](O)[C@@H](CO)O2)cc1F
Number: 5.73
--
Compound: N=C(N)c1ccc(OCCCCCOc2ccc(C(=N)N)cc2)cc1
Number: 6.22
--
Compound: COc1cccc2c1C(=O)c1c(O)c3c(c(O)c1C2=O)C[C@@](O)(C(C)=O)C[C@@H]3O[C@H]1C[C@H](N)[C@H](O)[C@H](C)O1
Number: 6.08
--
Compound: O=C(O)P(=O)(O)O
Number: 6.05

----------
Species: Rattus norvegicus
Experiment: DrugMatrix - Regimen: Daily Repeat
Type: toxicity, organism-based, Sprague-Dawley
Set-up: regimen Daily Repeat, gender Male, age 6-8 weeks
Details: in vivo, iv, 0 mg/kg, 72 h, tissue Blood, dose level Control, time 3 day, vehicle 100 % SALINE
Quick reference for MONOCYTE among some molecules
Measurement Kind: MONOCYTE (%)

Molecule: COc1cccc2c1C(=O)c1c(O)c3c(c(O)c1C2=O)C[C@@](O)(C(C)=O)C[C@@H]3O[C@H]1C[C@H](N)[C@H](O)[C@H](C)O1 [DAUNORUBICIN]
Unit String: %
Number: 1.5
//
Molecule: O=c1[nH]c(=O)n([C@H]2C[C@H](O)[C@@H](CO)O2)cc1F [FLOXURIDINE]
Unit String: %
Number: 1.33
//
Molecule: O=C(O)P(=O)(O)O [FOSCARNET]
Unit String: %
Number: 2
//
Molecule: N=C(N)c1ccc(OCCCCCOc2ccc(C(=N)N)cc2)cc1 [PENTAMIDINE]
Unit String: %
Number: 2.17
//
Molecule: C[N+](C)(C)CCOC(=O)CCC(=O)OCC[N+](C)(C)C.[Cl-].[Cl-] [SUCCINYLCHOLINE CHLORIDE]
Unit String: %
Number: 2.17

----------
Species on record: Rattus norvegicus
Assay: DrugMatrix - Regimen: Daily Repeat
Assay type: toxicity, organism-based, Sprague-Dawley
Parameters: regimen Daily Repeat, gender Male, age 6-8 weeks
Details: in vivo, iv, 0 mg/kg, 72 h, tissue Plasma, dose level Control, time 3 day, vehicle 100 % SALINE
compounds and their reported BLOOD UREA NITROGEN

Compound: O=c1[nH]c(=O)n([C@H]2C[C@H](O)[C@@H](CO)O2)cc1F
BLOOD UREA NITROGEN [mg/dL]: 16.83
//
Compound: COc1cccc2c1C(=O)c1c(O)c3c(c(O)c1C2=O)C[C@@](O)(C(C)=O)C[C@@H]3O[C@H]1C[C@H](N)[C@H](O)[C@H](C)O1
BLOOD UREA NITROGEN [mg/dL]: 13.5
//
Compound: C[N+](C)(C)CCOC(=O)CCC(=O)OCC[N+](C)(C)C.[Cl-].[Cl-] [SUCCINYLCHOLINE CHLORIDE]
BLOOD UREA NITROGEN [mg/dL]: 18
//
Compound: O=C(O)P(=O)(O)O
BLOOD UREA NITROGEN [mg/dL]: 18.5
//
Compound: N=C(N)c1ccc(OCCCCCOc2ccc(C(=N)N)cc2)cc1
BLOOD UREA NITROGEN [mg/dL]: 18

----------
Organism: Rattus norvegicus
Experiment: DrugMatrix - Regimen: Daily Repeat
Assay type: toxicity, organism-based, Sprague-Dawley
Design: regimen Daily Repeat, gender Male, age 6-8 weeks
Details: in vivo, po, 0 mg/kg, 72 h, tissue Blood, route oral GAVAGE, dose level Control, time 3 day, vehicle 100 % WATER
Measurement Kind: LYMPHOCYTE (%)

Compound: NC12CC3CC(CC(C3)C1)C2 [AMANTADINE]
Number: 91.67
//
Compound: NC(=O)c1cccnc1 [NIACINAMIDE]
Number: 86.5
//
Compound: CN(C)C(=O)Oc1cccc([N+](C)(C)C)c1.[Br-] [NEOSTIGMINE BROMIDE]
Number: 91.17
//
Compound: CCN(C(C)=O)c1cccc(-c2ccnc3c(C#N)cnn23)c1 [ZALEPLON]
Number: 91.67
//
Compound: CCCC(C)C1(CC)C(=O)NC(=O)NC1=O (stereo unspecified) [PENTOBARBITAL]
Number: 91.17
//
Compound: CCN(CC)CCNC(=O)c1ccc(N)cc1 [PROCAINAMIDE]
Number: 82.33

Reference for the values: ChEMBL document CHEMBL3885881
